Recorded melting point, one value per entry.

Recorded melting point, per entry:
O=S1(=O)CCN2C=CC=C(c3ccc(Oc4ccccc4)cc3)C2=N1 [Example 166] : 251 to 252 °C
O=S1(=O)CCN2C=CC=C(c3ccc(OC4CCCC4)cc3)C2=N1 : 254 to 256 °C
CC(C)c1ccc(C2=CC=CN3CCS(=O)(=O)N=C23)cc1 : 239 to 241 °C
CCCCOc1ccc(C2=CC=CN3CCS(=O)(=O)N=C23)cc1 : 230 to 232 °C

--- query ---
IN: Would you mind telling me what melting point value was observed for O=S1(=O)CCN2CCCC(c3ccc(Oc4ccc(Cl)cc4)cc3)C2=N1 (centres unmarked) [Example 148] ?
OUT: 215 to 216 °C
